measurement.notes: Clearance in iv dosed rat
Format: ADME, organism-based
experimental.parameters: in vivo

- smiles.entry: "COc1ccc2nc(COc3cc4c(cc3Cl)OCO4)[nH]c2c1"
  clearance: "61 mL/min/kg"

---

tgt: Bombesin receptor subtype-3 (Homo sapiens)
Sequence (whole entry): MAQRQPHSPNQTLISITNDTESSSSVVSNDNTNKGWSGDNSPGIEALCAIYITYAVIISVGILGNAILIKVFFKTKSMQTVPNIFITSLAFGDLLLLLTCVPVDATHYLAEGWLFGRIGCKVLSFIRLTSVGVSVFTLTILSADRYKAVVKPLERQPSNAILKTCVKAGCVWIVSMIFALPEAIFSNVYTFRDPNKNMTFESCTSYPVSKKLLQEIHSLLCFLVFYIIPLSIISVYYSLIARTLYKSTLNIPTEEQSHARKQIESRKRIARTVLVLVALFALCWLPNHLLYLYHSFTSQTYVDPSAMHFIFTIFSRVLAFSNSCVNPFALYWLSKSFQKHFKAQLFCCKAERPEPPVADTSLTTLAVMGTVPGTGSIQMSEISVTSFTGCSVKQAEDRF
measurement.notes: Agonist activity at recombinant BRS-3 receptor expressed in baculovirus-transduced HEK293 cells assessed as maximum response of intracellular calcium mobilization by FLIPR assay relative to D-Phe-Gln-Trp-Ala-Val-beta-Ala-His-Phe-Nle-NH2
Format: functional
result.type: %max (%)

- compound: "COc1ccc2[nH]c(SCc3ncc(C)c(OC)c3C)nc2c1"
  result.type: "%max"
  result.units: "%"
  value: 64
- compound: "COc1cc(CSc2nc3ccc(OC)cc3[nH]2)cc(OC)c1"
  result.type: "%max"
  result.units: "%"
  value: 68
- compound: "COc1ccc2nc(COc3cc4c(cc3Cl)OCO4)[nH]c2c1"
  result.type: "%max"
  result.units: "%"
  value: 71
- compound: "COc1ccc2nc(C(C)Cc3cc4c(cc3Cl)OCO4)[nH]c2c1 (centres undefined)"
  result.type: "%max"
  result.units: "%"
  value: 83
- compound: "Clc1ccc2nc(COc3cc4c(cc3Cl)OCO4)[nH]c2c1"
  result.type: "%max"
  result.units: "%"
  value: 59
- compound: "COc1ccc2[nH]c([S+]([O-])Cc3ncc(C)c(OC)c3C)nc2c1 (centres undefined)"
  result.type: "%max"
  result.units: "%"
  value: 27
- compound: "FC(F)(F)c1ccc2nc(COc3cc4c(cc3Cl)OCO4)[nH]c2c1"
  result.type: "%max"
  result.units: "%"
  value: 69
- compound: "COc1ccc2nc(CCc3cc4c(cc3Cl)OCO4)[nH]c2c1"
  result.type: "%max"
  result.units: "%"
  value: 82
- compound: "COc1ccc2nc(SCc3cc4c(cc3Cl)OCO4)[nH]c2c1"
  result.type: "%max"
  result.units: "%"
  value: 67

---

measurement.notes: Half life in iv dosed rat
Format: ADME, organism-based
experimental.parameters: in vivo

- smiles.entry: "COc1ccc2nc(COc3cc4c(cc3Cl)OCO4)[nH]c2c1"
  half-life, min: 30

// provenance: ChEMBL document CHEMBL1152231
